# TEST DETAILS: Mouse liver microsome assay (half-life, intrinsic clearance)
# STUDY CONDITIONS: mouse, microsomes
ENDPOINT: CLint

stdin: Could you share which CLint value was measured for O=C(C[C@@H]1CCC[C@]2(C1)OOC1(O2)C2CC3CC(C2)CC1C3)N1CCNCC1 (stereo partly shown) [12g] ?
stdout: 27.2 μL/min/mg of protein

stdin: Then NC1CCN(C(=O)C[C@@H]2CCC[C@]3(C2)OOC2(O3)C3CC4CC(C3)CC2C4)CC1 (stereo partly shown) [12i] ?
stdout: 8.2 μL/min/mg of protein

stdin: Then NC(=O)CNC(=O)C[C@@H]1CCC[C@]2(C1)OOC1(O2)C2CC3CC(C2)CC1C3 (stereo partly shown) [12b] ?
stdout: 18.6 μL/min/mg of protein

stdin: Then CC(C)(N)CNC(=O)C[C@@H]1CCC[C@]2(C1)OOC1(O2)C2CC3CC(C2)CC1C3 (stereo partly shown) [12a] ?
stdout: 4.1 μL/min/mg of protein

Every entry's value here was drawn from patent US12139470B2.
